- System: Mus musculus
- Test: Toxicity in mouse S180 cells allografted mouse assessed as heart weight at 1 umol/kg, ip for 7 consecutive days measured 24 hrs after last dose (reference value: 0.12 +/- 0.02 g)
- Type: organism-based, CCRF S-180
- Condition context: in vivo
Where a name gives a salt, the structure may show the parent alone.
Entries and their Activity values follow.

| Compound | Activity [g] |
| --- | --- |
| CC[C@H](C)[C@H](NC(=O)[C@H](Cc1c[nH]c2ccccc12)NC(=O)[C@H](Cc1c[nH]c2ccccc12)NC(=O)c1cc2ccc(O)cc2oc1=O)C(=O)OCc1ccccc1 | 0.1 |
| CC(C)C[C@H](NC(=O)[C@H](Cc1c[nH]c2ccccc12)NC(=O)[C@H](Cc1c[nH]c2ccccc12)NC(=O)c1cc2ccc(O)cc2oc1=O)C(=O)OCc1ccccc1 | 0.11 |
| CC(C)[C@H](NC(=O)[C@H](Cc1c[nH]c2ccccc12)NC(=O)[C@H](Cc1c[nH]c2ccccc12)NC(=O)c1cc2ccc(O)cc2oc1=O)C(=O)OCc1ccccc1 | 0.09 |
| COc1cccc2c1C(=O)c1c(O)c3c(c(O)c1C2=O)C[C@@](O)(C(=O)CO)C[C@@H]3O[C@H]1C[C@H](N)[C@H](O)[C@H](C)O1 [DOXORUBICIN HYDROCHLORIDE] | 0.11 |
| O=C(N[C@@H](Cc1c[nH]c2ccccc12)C(=O)N[C@@H](Cc1c[nH]c2ccccc12)C(=O)N[C@@H](Cc1ccc(O)cc1)C(=O)OCc1ccccc1)c1cc2ccc(O)cc2oc1=O | 0.1 |
| O=C(N[C@@H](Cc1c[nH]c2ccccc12)C(=O)N[C@@H](Cc1c[nH]c2ccccc12)C(=O)N1CCC[C@H]1C(=O)OCc1ccccc1)c1cc2ccc(O)cc2oc1=O | 0.09 |
| O=C(CNC(=O)[C@H](Cc1c[nH]c2ccccc12)NC(=O)[C@H](Cc1c[nH]c2ccccc12)NC(=O)c1cc2ccc(O)cc2oc1=O)OCc1ccccc1 | 0.11 |
| O=C(CC[C@H](NC(=O)[C@H](Cc1c[nH]c2ccccc12)NC(=O)[C@H](Cc1c[nH]c2ccccc12)NC(=O)c1cc2ccc(O)cc2oc1=O)C(=O)OCc1ccccc1)OCc1ccccc1 | 0.11 |
| C[C@@H](O)[C@H](NC(=O)[C@H](Cc1c[nH]c2ccccc12)NC(=O)[C@H](Cc1c[nH]c2ccccc12)NC(=O)c1cc2ccc(O)cc2oc1=O)C(=O)OCc1ccccc1 | 0.12 |
